# E. coli (CFU/ml) after 6 hours per entry
- System: E. coli
- PROCEDURE TEXT: Co-culture of E. coli with and without L. reuteri 1063 on various substrates (Table 1)
- Format: cell-based
- COND: Addition of L. reuteri 1063: -; substrate 20 mM (C6, C5) or 40 mM (C3); inoculum 5 x 10^6 CFU per ml E. coli
- Experimental: Conditions under which reuterin is produced have been determined. Reuterin is not produced under aerobic conditions (atmospheric oxygen concentration) but under reduced oxygen tension. It is produced when L. reuteri is cultured anaerobically (or semi-anaerobically in still culture) in the MIC assay medium described above containing 20-500 mM glycerol or glyceraldehyde in place of glucose as the major carbon and energy source. […]
READOUT KIND: E. coli (CFU/ml) after 6 hours

* O=C(CO)[C@@H](O)[C@H](O)[C@H](O)CO | 2.1x10^8 CFU/ml
* O=C[C@H](O)[C@@H](O)[C@H](O)CO | 6.7x10^7 CFU/ml
* OC[C@@H](O)[C@@H](O)[C@H](O)[C@@H](O)CO | 2.1x10^8 CFU/ml
* OCC(O)CO | 1.2x10^7 CFU/ml
* OC[C@@H](O)C(O)[C@H](O)CO | 2.7x10^6 CFU/ml
* OC[C@@H](O)[C@@H](O)[C@@H](O)CO | 5.7x10^6 CFU/ml
* O=CC(O)CO (centres unmarked) | 2.8x10^6 CFU/ml
* O=C(CO)COP(=O)(O)O [Dihydroxyacetone-P] | 3.4x10^6 CFU/ml
* OC[C@@H](O)[C@@H](O)[C@H](O)[C@H](O)CO | 2.3x10^8 CFU/ml
* O=P(O)(O)OC(CO)CO | 5.1x10^6 CFU/ml
* O=C(O)[C@H](O)[C@@H](O)[C@H](O)[C@H](O)CO [Gluconate] | 3.5x10^8 CFU/ml

---

# E. coli (CFU/ml) after 6 hours per entry
- Test system: E. coli
- PROCEDURE TEXT: Co-culture of E. coli with and without L. reuteri 1063 on various substrates (Table 1)
- Assay type: cell-based
- COND: Addition of L. reuteri 1063: +; substrate 20 mM (C6, C5) or 40 mM (C3); inoculum 5 x 10^6 CFU per ml E. coli
READOUT KIND: E. coli (CFU/ml) after 6 hours

- O=P(O)(O)OC(CO)CO: 6.5x10^6 CFU/ml
- OC[C@@H](O)[C@@H](O)[C@H](O)[C@@H](O)CO: 1.9x10^8 CFU/ml
- O=C(CO)[C@@H](O)[C@H](O)[C@H](O)CO: 3.0x10^8 CFU/ml
- O=C(CO)COP(=O)(O)O [Dihydroxyacetone-P]: 4.1x10^6 CFU/ml
- OC[C@@H](O)C(O)[C@H](O)CO: 2.9x10^6 CFU/ml
- OC[C@@H](O)[C@@H](O)[C@@H](O)CO: 4.9x10^6 CFU/ml
- OC[C@@H](O)[C@@H](O)[C@H](O)[C@H](O)CO: 2.7x10^8 CFU/ml
- OCC(O)CO: 5.5x10^4 CFU/ml
- O=C(O)[C@H](O)[C@@H](O)[C@H](O)[C@H](O)CO [Gluconate]: 3.2x10^8 CFU/ml
- O=C[C@H](O)[C@@H](O)[C@H](O)CO: 6.9x10^7 CFU/ml
- O=CC(O)CO (centres unmarked): 3.2x10^4 CFU/ml

---

# Growth of E. coli presence of centrifuged culture medium CFU/ml after 6 hours per entry
- Test system: E. coli
- PROCEDURE TEXT: Inhibition of E. coli by supernatant fractions of L. reuteri grown on various substrates (Table 2)
- Type: cell-based
- COND: supernatant fraction of L. reuteri grown on the substrate at 40 mM; inoculum 6.7 x 10^7 CFU per ml E. coli
READOUT KIND: Growth of E. coli presence of centrifuged culture medium CFU/ml after 6 hours

• O=P(O)(O)OC(CO)CO = 3.2x10^9 CFU/ml
• O=CC(O)CO (stereo not drawn) = 6.1x10^5 CFU/ml
• OCC(O)CO = 4.5x10^5 CFU/ml
• O=C(CO)COP(=O)(O)O [Dihydroxyacetone-P] = 3.7x10^9 CFU/ml
• CC(=O)C(=O)O [Pyruvate] = 4.1x10^9 CFU/ml
• C=C(OP(=O)(O)O)C(=O)O [Phosphoenolpyruvate] = 3.7x10^9 CFU/ml

---

- System: E. coli
- PROCEDURE TEXT: Inhibition of E. coli by supernatant fractions of L. reuteri grown on various substrates (Table 2)
- Assay type: cell-based
- COND: percent inhibition in viable count of 6.7 x 10^7 CFU per ml E. coli inoculum by supernatant fraction; substrate 40 mM
# % Inhibition per entry
READOUT KIND: % Inhibition (%)

- OCC(O)CO: 99.9
- CC(=O)C(=O)O [Pyruvate]: 0
- O=C(CO)COP(=O)(O)O [Dihydroxyacetone-P]: 0
- O=P(O)(O)OC(CO)CO: 0
- C=C(OP(=O)(O)O)C(=O)O [Phosphoenolpyruvate]: 0
- O=CC(O)CO (stereo not drawn): 98.9
